Test system: Plasmodium berghei
TEST_PROTOCOL: Luciferase/luciferin-expressing antifolate-resistant parasites were used to infect a culture of HepG2 cells that were pre-incubated with compounds. Infected hepatocytes emit light due to the luciferase reaction. Assay results are presented as the percent inhibition of light emission compared to control. […]
Type: functional
MEASUREMENT_SETUP: sporozoite, read-out: LUCIFERASE INFECTION ASSAY - IC90
ENDPOINT_NAME: IC90

[[record]]
molecule = "Oc1cc(C(F)(F)F)nc2ccc(F)cc12"
endpoint_name = "IC90"
result = "> 14.3 µM"

[[record]]
molecule = "Clc1ccc2c(c1)-c1nc(-c3ccncc3)ncc1CS2"
endpoint_name = "IC90"
result = "5.94 µM"

[[record]]
molecule = "Cc1ccc(S(=O)(=O)Oc2ccc(Cl)cc2Sc2cc(Cl)ccc2OS(=O)(=O)c2ccc(C)cc2)cc1"
endpoint_name = "IC90"
result = "> 5.54 µM"

[[record]]
molecule = "CCOC(=O)N1CCC(NC(=O)/C(=C/c2ccc(OC(F)F)cc2)c2ccccc2)CC1"
endpoint_name = "IC90"
result = "9.96 µM"

[[record]]
molecule = "CCCCCCN(C(=O)CC(NC(=O)c1ccccc1)c1ccccc1)c1nc2ccccc2s1 (stereo not given)"
endpoint_name = "IC90"
result = "9.24 µM"

